Target: CD28 (Homo sapiens, UniProt P10747)
Assay: CD28 costimulation via Fc receptor or PD-L1 dependent cross-linking (Jurkat/IL2 + K562/OKT3 +/- PD-L1)
Assay type: cell-based
Set-up: host or cells: Jurkat cells expressing an IL-2-luciferase reporter
Conditions: K562/0KT3 aAPC; 50 nM; luciferase signal
Readings of CD28 costimulation, FcR Dependent Cross-Linking (No PD-L1), 50 nM for the listed molecules
Reply with just the number.

# MOLECULE, NUMBER
records = [
    ("E35G/K54E/A71D/L72P: variant CD80 IgV-Fc, IgV SEQ ID NO:219 (protein) VIHVTKEVKEVATLSCGHNVSVEELAQTRIYWQKGKKMVLTMMSGDMNIWPEYENRTIFDITNNLSIVILDPRPSDEGTYECVVLKYEKDAFKREHLAEVTLSVKAD", 1510),
]

Would you mind telling me what CD28 costimulation, FcR Dependent Cross-Linking (No PD-L1), 50 nM value was observed for E23G/A26S/E35D/T62N/A71D/L72V/L85M: variant CD80 IgV-Fc, IgV SEQ ID NO:216 (protein) VIHVTKEVKEVATLSCGHNVSVGELSQTRIYWQKDKKMVLTMMSGDMNIWPEYKNRTIFDINNNLSIVILDVRPSDEGTYECVVMKYEKDAFKREHLAEVTLSVKAD ?
7855

Would you mind telling me what CD28 costimulation, FcR Dependent Cross-Linking (No PD-L1), 50 nM value was observed for A71D/L72V/E95K: variant CD80 IgV-Fc, IgV SEQ ID NO:192 (protein) VIHVTKEVKEVATLSCGHNVSVEELAQTRIYWQKEKKMVLTMMSGDMNIWPEYKNRTIFDITNNLSIVILDVRPSDEGTYECVVLKYEKDAFKRKHLAEVTLSVKAD ?
7109

Would you mind telling me what CD28 costimulation, FcR Dependent Cross-Linking (No PD-L1), 50 nM value was observed for E35D/M47L: variant CD80 IgV-Fc, IgV SEQ ID NO:208 (protein) VIHVTKEVKEVATLSCGHNVSVEELAQTRIYWQKDKKMVLTMMSGDLNIWPEYKNRTIFDITNNLSIVILALRPSDEGTYECVVLKYEKDAFKREHLAEVTLSVKAD ?
8685

Would you mind telling me what CD28 costimulation, FcR Dependent Cross-Linking (No PD-L1), 50 nM value was observed for E35D/M47I/L70M: variant CD80 IgV-Fc, IgV SEQ ID NO:199 (SEQ ID NO:125 in b995) (protein) VIHVTKEVKEVATLSCGHNVSVEELAQTRIYWQKDKKMVLTMMSGDINIWPEYKNRTIFDITNNLSIVIMALRPSDEGTYECVVLKYEKDAFKREHLAEVTLSVKAD ?
5780

Would you mind telling me what CD28 costimulation, FcR Dependent Cross-Linking (No PD-L1), 50 nM value was observed for E35D/D46V/L85Q: variant CD80 IgV-Fc, IgV SEQ ID NO:203 (protein) VIHVTKEVKEVATLSCGHNVSVEELAQTRIYWQKDKKMVLTMMSGVMNIWPEYKNRTIFDITNNLSIVILALRPSDEGTYECVVQKYEKDAFKREHLAEVTLSVKAD ?
7015
